tested on: muMax20 (Max(13-93) K31hArg/K57hArg, M65Nle); test: PBM 8-mer E-score (E-score (rank enrichment, -0.5 to 0.5)); higher = stronger preferential binding
The full ranking holds about 33,000 sequences; the median of “E-score (rank enrichment, -0.5 to 0.5)” is about -0.0068, and the highest 2% start at about 0.24. Many of the other results were omitted from the sample, so the highest values are more common in it than they were.
PROPERTY LABEL: PBM 8-mer E-score
Answers are plain numbers.

GTTCACAA = -0.0567

The following sequences each have a reported value; give each one's PBM 8-mer E-score.
1. AAGCGGCG
2. ACGTGGCC
3. ACGCTGAA
4. CCTGTCGC

Response:
1. -0.253
2. 0.114
3. -0.171
4. -0.224
